Please provide measured EC (150% of control) for the entries that follow.
System: human embryonic stem cell derived neural stem cells (NSCs)
assay text: Neural stem cell proliferation assay (neurogenesis assay)
Format: cell-based
applied conditions: Homo sapiens, Neural stem cell, 96 h; Table 1, novel compounds; concentration at which 150% activity of control (100%) is reached; ATP levels (CellTiterGlo) after 4 days incubation
Method: Neural Stem Cell Proliferation Assay Neurogenic properties of small molecules are determined based on the proliferation of human embryonic stem cell derived neural stem cells (NSCs) which were derived via a dual smad inhibition as previously described (Chambers, S. M., et al., Highly efficient neural conversion of human ES and iPS cells by dual inhibition of SMAD signaling, Nature biotechnology, 2009. 27 (3): p. 275-80.) […]
Write the number in µM without appending the unit.

Query string: Look up EC (150% of control): Cn1cc(-c2cncc3ccc(C(N)=O)nc23)cn1
Result string: 0.14

Query string: Look up EC (150% of control): CCCCCCNC(=O)Cc1ccc(-c2cncc3ccc(C(N)=O)nc23)cc1
Result string: 0.04

Query string: Look up EC (150% of control): O=C(c1ccc2cncc(-c3ccc(Cl)cc3)c2n1)N1CCNCC1
Result string: 3.15

Query string: Look up EC (150% of control): O=C(NCc1ccncn1)c1ccc2cncc(-c3ccc(Cl)cc3)c2n1
Result string: 0.17

Query string: Look up EC (150% of control): COc1ccc(-c2cncc3ccc(C(N)=O)nc23)cc1
Result string: 0.01

Query string: Look up EC (150% of control): O=C(NN1CCCCC1)c1ccc2cncc(-c3ccc(Cl)cc3)c2n1
Result string: 1.48

Query string: Look up EC (150% of control): O=C(NCC(F)(F)F)c1ccc2cncc(-c3ccc(F)cc3)c2n1
Result string: 0.07

Query string: Look up EC (150% of control): CC(NC(=O)c1ccc2cncc(-c3ccc(Cl)cc3)c2n1)c1cccc(S(C)(=O)=O)c1 (single isomer, unassigned; (-))
Result string: 0.8

Query string: Look up EC (150% of control): NC(=O)c1ccc2cncc(-c3ccc(Cl)c(F)c3)c2n1
Result string: 0.03

Query string: Look up EC (150% of control): NC(=O)c1ccc2cncc(-c3ccc(Cl)cc3)c2n1
Result string: 0.03

Query string: Look up EC (150% of control): CC(NC(=O)c1ccc2cncc(-c3ccc(Cl)cc3Cl)c2n1)C(C)(C)O (stereo not shown)
Result string: 0.5

Query string: Look up EC (150% of control): O=C(NCC(F)(F)F)c1ccc2cncc(-c3cc(F)ccc3F)c2n1
Result string: 0.13

Query string: Look up EC (150% of control): CC(NC(=O)c1ccc2cncc(-c3ccc(Cl)c(F)c3)c2n1)C(C)(C)O (stereo not shown)
Result string: 0.25

Query string: Look up EC (150% of control): O=C(NCc1ccccc1)c1ccc2cncc(-c3cccc(Cl)c3)c2n1
Result string: 0.54

Query string: Look up EC (150% of control): CS(=O)(=O)c1cccc(CNC(=O)c2ccc3cncc(-c4ccc(Cl)cc4)c3n2)c1
Result string: 0.12

Query string: Look up EC (150% of control): CCCCCCNC(=O)c1ccc2cncc(-c3ccc(Cl)cc3)c2n1
Result string: 0.21

Query string: Look up EC (150% of control): O=C(NCc1ccccn1)c1ccc2cncc(-c3ccc(Cl)cc3)c2n1
Result string: 0.51

Query string: Look up EC (150% of control): NC(=O)c1ccc2cncc(-c3ccc(F)cc3)c2n1
Result string: 0.09

Query string: Look up EC (150% of control): O=C(NCCCn1ccnc1)c1ccc2cncc(-c3ccc(Cl)cc3)c2n1
Result string: 0.12

Query string: Look up EC (150% of control): O=C(NCc1ccccc1)c1ccc2cncc(-c3ccc(Cl)cc3)c2n1
Result string: 0.05

Query string: Look up EC (150% of control): NC(=O)c1ccc2cncc(-c3ccccc3Cl)c2n1
Result string: 0.15

Query string: Look up EC (150% of control): O=C(NCCO)c1ccc2cncc(-c3cccc(O)c3)c2n1
Result string: 0.16

Query string: Look up EC (150% of control): O=C(NCc1ccncc1)c1ccc2cncc(-c3cccc(Cl)c3)c2n1
Result string: 0.51

Query string: Look up EC (150% of control): Cc1cccc(-c2cncc3ccc(C(N)=O)nc23)c1
Result string: 0.05

Query string: Look up EC (150% of control): O=C(c1ccc2cncc(-c3ccc(Cl)cc3)c2n1)N1CCS(=O)(=O)CC1
Result string: 1.68

Query string: Look up EC (150% of control): O=C(c1ccc2cncc(-c3ccc(Cl)cc3)c2n1)N1CCCCC1
Result string: 1.51

Query string: Look up EC (150% of control): CC(C)(C)OC(=O)N1CCN(C(=O)c2ccc3cncc(-c4ccc(Cl)cc4)c3n2)CC1
Result string: 1.1

Query string: Look up EC (150% of control): CS(=O)(=O)c1ccc(CNC(=O)c2ccc3cncc(-c4cccc(F)c4)c3n2)cc1
Result string: 0.17

Query string: Look up EC (150% of control): CS(=O)(=O)NNC(=O)c1ccc2cncc(-c3ccc(Cl)cc3)c2n1
Result string: 0.07

Query string: Look up EC (150% of control): COCCNC(=O)c1ccc2cncc(-c3ccncc3)c2n1
Result string: 0.31

Query string: Look up EC (150% of control): COCCNC(=O)c1ccc2cncc(-c3cccnc3)c2n1
Result string: 0.49

Query string: Look up EC (150% of control): Cc1cc2cncc(-c3ccc(Cl)cc3)c2nc1C(N)=O
Result string: 0.34

Query string: Look up EC (150% of control): Cc1cc2cncc(-c3ccc(C(F)(F)F)cc3)c2nc1C(N)=O
Result string: 0.88

Query string: Look up EC (150% of control): COc1ccc(-c2cncc3ccc(C(N)=O)nc23)cn1
Result string: 0.09

Query string: Look up EC (150% of control): COc1ccc(-c2cncc3ccc(C(=O)N(C)Cc4ccccc4)nc23)cc1
Result string: 0.22

Query string: Look up EC (150% of control): Cc1cc2cncc(-c3ccc(F)cc3)c2nc1C(N)=O
Result string: 0.79

Query string: Look up EC (150% of control): NC(=O)c1ccc2cncc(-c3ccc(C(F)(F)F)cc3)c2n1
Result string: 0.02

Value source: patent US9657014B2
